Numbers sourced from ChEMBL document CHEMBL3271942.

tested on: Canis familiaris; test: Diuretic activity in mongrel dog assessed as urine volume at 10 mg/kg, iv measured after 15 and 45 mins (reference value: 1 to 2 ml/min); assay type: functional, Canis lupus familiaris
I'd appreciate it if you marked entries y when Activity is lower than 5 mL/min and n when it is not.

compound: CCC(=O)/C=C/c1ccc(OCC(=O)O)c(Cl)c1Cl
group: n
//
compound: CC(=O)/C=C/c1ccc(OCC(=O)O)cc1Cl
group: y
//
compound: C=C(CC)C(=O)c1ccc(OCC(=O)O)c(Cl)c1Cl [ETHACRYNIC ACID]
group: n
//
compound: CCC(=O)/C(C)=C/c1ccc(OCC(=O)O)c(Cl)c1Cl
group: y
//
compound: O=C(O)COc1ccc(/C=C2\CCC2=O)c(Cl)c1Cl
group: n
